test system: human neuroblastoma MC-65 cells; experiment: cells; conditions: MC-65, presence of TET, viability below 80%
result type: CC1 (cytotoxic concentration)

• Cc1c(O)c(=O)c(C(N2CCOCC2)C(F)(F)F)cn1C (centres unmarked) [Apo7435] = 40 µM
• CCc1c(O)c(=O)ccn1CC(F)(F)F [Apo7030] = 40 µM
• CNC(c1cn(C)c(C)c(O)c1=O)C(F)(F)F (centres unmarked) [Apo7056] = 80 µM

Query string: Give its CC1 (cytotoxic concentration) value. Item: Cn1ccc(=O)c(O)c1C(N1CCOCC1)C(F)(F)F (centres unmarked) [Apo7448]
Result string: 40 µM

Query string: Give its CC1 (cytotoxic concentration) value. Item: Cc1c(O)c(=O)ccn1CC(F)(F)F [Apo6995]
Result string: 80 µM

Query string: Give its CC1 (cytotoxic concentration) value. Item: Cc1cc(=O)c(O)c(CN2CCOCC2)n1CC(F)(F)F [Apo7434]
Result string: 40 µM

Query string: Give its CC1 (cytotoxic concentration) value. Item: Cc1cc(=O)c(O)c(C(N2CCN(Cc3ccccc3)CC2)C(F)(F)F)n1C (centres unmarked) [Apo7334]
Result string: 10 µM

Query string: Give its CC1 (cytotoxic concentration) value. Item: Cc1c(O)c(=O)c(C(N2CCCCC2)C(F)(F)F)cn1C (centres unmarked) [Apo7054]
Result string: 20 µM

Query string: Give its CC1 (cytotoxic concentration) value. Item: Cn1ccc(=O)c(O)c1CC(F)F [Apo7080]
Result string: 40 µM

Query string: Give its CC1 (cytotoxic concentration) value. Item: C=CCNC(c1c(O)c(=O)ccn1C)C(F)(F)F (centres unmarked) [Apo7075]
Result string: 10 µM

---

assay: Pharmacokinetics following oral administration to rats; assay type: in vivo, male Sprague Dawley rats; conditions: rat, oral 50 mg/kg in 0.5% CMC, dose-normalized
Each entry below carries its reported Plasma Cmax_D.

Past entries and their recorded results:
- O=c1ccn(CC(F)(F)F)c(CN2CCOCC2)c1O [Apo7323]: 0.400 kg·µg/mL/mg
- Cn1ccc(=O)c(O)c1C(N1CCOCC1)C(F)(F)F (stereo not shown) [Apo7448]: 0.334 kg·µg/mL/mg
- Cc1c(O)c(=O)c(C(N2CCOCC2)C(F)(F)F)cn1C (stereo not shown) [Apo7435]: 0.312 kg·µg/mL/mg

Now examine the next entry.
Query string: Give its Plasma Cmax_D value. Item: Cc1[nH]cc(C(N2CCOCC2)C(F)(F)F)c(=O)c1O (stereo not shown) [Apo7433]
Result string: 0.396 kg·µg/mL/mg

---

system: human neuroblastoma MC-65 cells; assay: cells; conditions: Homo sapiens, MC65, 48 h, read-out: TH (threshold protective concentration)
Each entry below carries its reported minimal effective concentration.
Answer format: numeric, µM implied, no suffix.

Past entries and their recorded results:
- Cn1ccc(=O)c(O)c1C(NC1CC1)C(F)(F)F (centres unmarked): 0.1
- Cc1c(O)c(=O)c(C(N2CCOCC2)C(F)(F)F)cn1C (centres unmarked): 1
- CN(C)Cc1c(O)c(=O)ccn1CC(F)(F)F: 0.1
- Cc1cc(=O)c(O)c(C(N2CCN(c3ccccn3)CC2)C(F)(F)F)n1C (centres unmarked): 1

Query string: Give its minimal effective concentration value. Item: Cn1ccc(=O)c(O)c1C(N1CCCCC1)C(F)(F)F (centres unmarked)
Result string: 1
